Attribution: patent US11999727B2

Provide the reported pIC50 of each item.
System: HAP1 MTAP-deleted cell line
measurementNotes: Viability assay, MTAP-deleted cell line
Format: cell-based
protocolConditions: Homo sapiens, HAP1, viability assay, MTAP-deleted cell line; read-out: HAP1 MTAP deleted viability
pIC50: −log10 of the molar value.

# count of solved cases: 4
CCc1cc(NC(=O)C(=O)N2C[C@H](C)C(F)(F)C[C@H]2c2ccc(C)nc2)cnc1N (single isomer, unassigned)
< 5.00
Cc1cc(NC(=O)C(=O)N2C[C@H](C)CC[C@H]2C(C)C)cnc1N (racemic)
< 5.00
C[C@H]1CC[C@H]([C@@H]2CCC[C@@H](O)C2)N(C(=O)C(=O)Nc2cncc(C(N)=O)c2)C1 (single isomer, unassigned)
< 5.00
C[C@@H]1CC[C@@H](c2cccc(N(C)C)c2)N(C(=O)C(=O)Nc2cncc(C(N)=O)c2)C1 (single isomer, unassigned)
5.00 to 6.00

Look up pIC50 for the entries below, preserving their order.
1. Cc1cc(NC(=O)C(=O)N2CCCCC2C23CC(C(F)(F)F)(C2)C3)cnc1N (stereo not shown)
2. C[C@@H]1C[C@H](c2ccccc2)N(C(=O)C(=O)Nc2cncc(C(N)=O)c2)C[C@@H]1C (racemic)
3. Cc1cc(NC(=O)C(=O)N2CCCC[C@H]2c2cccc(N(C)C)c2)cnc1N (single isomer, unassigned)

Result:
1: < 5.00; 2: < 5.00; 3: > 6.00

----------
subjectOfTest: PRMT5 (Homo sapiens)
Construct: purchased Viva (custom protein)
Sequence (O14744 whole entry): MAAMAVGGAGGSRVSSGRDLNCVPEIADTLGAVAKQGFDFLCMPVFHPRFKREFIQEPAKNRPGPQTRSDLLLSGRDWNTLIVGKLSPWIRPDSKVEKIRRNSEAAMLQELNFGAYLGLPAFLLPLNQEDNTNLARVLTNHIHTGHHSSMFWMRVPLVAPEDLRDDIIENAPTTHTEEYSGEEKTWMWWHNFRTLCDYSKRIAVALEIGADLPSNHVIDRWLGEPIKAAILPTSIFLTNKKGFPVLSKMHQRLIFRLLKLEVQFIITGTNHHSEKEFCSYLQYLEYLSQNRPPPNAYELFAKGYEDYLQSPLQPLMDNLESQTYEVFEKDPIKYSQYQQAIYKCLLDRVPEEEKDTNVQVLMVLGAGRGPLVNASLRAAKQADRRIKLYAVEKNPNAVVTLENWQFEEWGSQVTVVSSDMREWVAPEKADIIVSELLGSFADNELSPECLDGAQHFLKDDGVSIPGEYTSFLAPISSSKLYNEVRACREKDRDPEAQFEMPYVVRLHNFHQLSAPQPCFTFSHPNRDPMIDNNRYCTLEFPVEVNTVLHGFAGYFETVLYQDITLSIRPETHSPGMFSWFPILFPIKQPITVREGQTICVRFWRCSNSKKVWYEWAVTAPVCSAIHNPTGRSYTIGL
Sequence (Q9BQA1 whole entry partner): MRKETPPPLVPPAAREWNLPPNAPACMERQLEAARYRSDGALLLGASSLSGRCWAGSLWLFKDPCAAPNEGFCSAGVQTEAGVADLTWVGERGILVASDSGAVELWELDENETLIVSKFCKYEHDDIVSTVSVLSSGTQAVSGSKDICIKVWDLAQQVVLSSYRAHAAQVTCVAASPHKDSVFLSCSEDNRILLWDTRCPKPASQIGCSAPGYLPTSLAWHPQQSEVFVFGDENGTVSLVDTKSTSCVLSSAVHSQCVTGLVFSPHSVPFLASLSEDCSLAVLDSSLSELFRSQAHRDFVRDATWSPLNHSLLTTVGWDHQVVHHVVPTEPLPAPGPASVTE
measurementNotes: PRMT5 biochemical IC50 assay with SAM as cofactor
protocolConditions: PRMT5, SAM as cofactor; read-out: SAM IC50
experimentalReadout: IC50

COc1cc([C@H]2CC[C@H](C)CN2C(=O)C(=O)Nc2cncc(C(N)=O)c2)ccn1 (single isomer, unassigned) [Compound 533]
> 500 nM
CCc1cc(NC(=O)C(=O)N2C[C@H](C)CC[C@H]2c2ccc3sc(CCOC)nc3c2)cnc1N (single isomer, unassigned) [Compound 1375]
> 500 nM

Moving on to the next compound.
Ask: Quickly give me recorded IC50 for CCc1cc(NC(=O)C(=O)N2C[C@H](C)CC[C@H]2c2ccc(C(N)=O)s2)cnc1N (single isomer, unassigned) [Compound 838]
Result: 50 to 500 nM

----------
subjectOfTest: PRMT5 (Homo sapiens)
Construct: purchased Viva (custom protein)
measurementNotes: PRMT5 biochemical IC50 assay with SAM as cofactor
protocolConditions: PRMT5, SAM as cofactor; read-out: SAM IC50
pIC50: −log10 of the molar value.
experimentalReadout: pIC50

# count of solved cases: 10
COc1ncc(NC(=O)C(=O)N2C[C@@H](C)CC[C@@H]2c2ccc3sc(C)nc3c2)cc1C(N)=O (single isomer, unassigned)
6.30 to 7.30
CCc1cc(NC(=O)C(=O)N2C[C@@H](C)CC[C@@H]2c2ccc3sc(CC(C)N(C)C)nc3c2)cnc1N (mixture of isomers)
6.30 to 7.30
CCc1cc(NC(=O)C(=O)N2C[C@@H](C)CC[C@@H]2c2cc(Cl)cc(Cl)c2)cnc1N (single isomer, unassigned)
6.30 to 7.30
Cc1cncc(NC(=O)C(=O)N2C[C@@H](C)CC[C@@H]2c2cccc(C)c2)c1 (single isomer, unassigned)
< 6.30
CC1CCC(C2CCCC2)CN1C(=O)C(=O)Nc1cncc(C(N)=O)c1 (racemic)
< 6.30
Cc1cc(NC(=O)C(=O)N2C[C@@H](C)CC[C@@H]2c2ccc(N3CCN(C)CC3)cc2)cnc1N (single isomer, unassigned)
6.30 to 7.30
NC(=O)c1cncc(NC(=O)C(=O)N2CCCC[C@@H]2c2ccccc2)c1 (single isomer, unassigned)
6.30 to 7.30
C[C@@H]1CN(C(=O)C(=O)Nc2cncc(C(N)=O)c2)[C@@H](c2ccc(F)cc2)CC1(F)F (single isomer, unassigned)
< 6.30
Cc1cc(NC(=O)C(=O)N2C[C@H](C)C[C@@H](F)[C@H]2c2ccc(F)cc2)cnc1N (racemic)
6.30 to 7.30
CCc1cc(NC(=O)C(=O)N2C[C@@H](C)CC[C@@H]2c2ccc3[nH]c(=O)ccc3c2)cnc1N (single isomer, unassigned)
6.30 to 7.30

Look up pIC50 for the entries below, preserving their order.
1. Cc1ncc(NC(=O)C(=O)N2C[C@H](C)CC[C@H]2c2ccc3c(c2)CCC(=O)N3)cc1Cl (single isomer, unassigned) [Compound 726]
2. Cc1cc(NC(=O)C(=O)N2C[C@H](C)CC[C@H]2c2cccc(Br)c2)cnc1N (racemic)
3. Cc1cc(NC(=O)C(=O)N2C[C@@H](C)CC[C@@H]2c2ccc3sc(C4CCN(C5COC5)CC4)nc3c2)cnc1N

Result:
6.30 to 7.30
6.30 to 7.30
> 7.30
